These data points were gathered from PubChem BioAssay (NCI).

test system: MALME-3M melanoma; assay: NCI-60 one-dose screen, 48 h; conditions: 10 µM unless noted
The panel holds about 83,000 compounds, 20% with a hit somewhere; the sample as a whole holds those more often. The source made the active and inactive calls. Rule for the calls: active = growth percent below 10; inactive = the rest.
Use one of these outcomes when replying: true (1) = active, false (0) = inactive

{"Molecule": "Oc1ccc(CCl)c2cccnc12", "Assigned Label": "false (0)"}
{"Molecule": "CN1CCN(Cc2ccc(NC(=O)c3cncc(C#Cc4cnccc4C#N)c3)cc2C(F)(F)F)CC1", "Assigned Label": "false (0)"}
{"Molecule": "Clc1ccc(C(/C=C/c2sc(Cl)nc2Cl)=N/Nc2cc(Cl)cc(Cl)c2)cc1", "Assigned Label": "false (0)"}
{"Molecule": "COC(=O)C(Cc1ccccc1)NC(=O)NC(=O)NC(=O)CI (stereo unspecified)", "Assigned Label": "true (1)"}
{"Molecule": "S=c1nc(-c2ccccc2)oc(=NC2CCCCC2)n1C1CCCCC1", "Assigned Label": "false (0)"}

Please turn your attention to the following entry.
Please let me know the test result on file for FC(F)(F)c1cc(Nc2ccc3c(OCCCN4CCOCC4)cccc3n2)ccc1Cl .
false (0)

---

system: SF-539 CNS; test: NCI-60 one-dose screen, 48 h (100 = growth as untreated, 0 = no growth, -100 = all killed); conditions: 10 µM unless noted
This is part of a sample that, as a whole, favours compounds with a hit. Of some 83,000 tested, about 20% had one in any assay. The source made the active and inactive calls. Rule for the calls: active = growth percent below 10; inactive = the rest.
Quantity Name: growth

{"Compound": "COC(=O)C(Cc1ccccc1)NC(=O)NC(=O)NC(=O)CI (stereo not drawn)", "growth": "87.7% (inactive)"}

Give the reported value of growth for this record: COc1cc(C(=O)N2N=C(c3ccc(S(C)(=O)=O)cc3)CC2c2ccco2)cc(OC)c1OC (stereo not drawn)
79.1% (inactive)

Give the reported value of growth for this record: COc1nc2ccc(C)cc2cc1-c1nc2c(cnn2-c2ccccc2)c(=O)[nH]1
99.9% (inactive)

---

test system: MDA-MB-231 breast; test: NCI-60 one-dose screen, 48 h; details: 10 µM unless noted
About 83,000 compounds went through this panel and 20% of them were active in at least one assay; those are over-represented in the sample as a whole. Active and inactive are the calls of the source. Rule for the calls: active = growth percent below 10; inactive = the rest.
Use one of these outcomes when replying: active, inactive

Previously resolved entries follow.
{"Compound": "Cc1cccc2c3c(sc12)C(c1ccc(Cl)cc1)C(C#N)=C(/N=C/c1ccc(Cl)cc1)O3 (centres undefined)", "Assigned Label": "inactive"}
{"Compound": "C[C@H]1[C@H]2[C@H]3CC[C@@H]4[C@@]5(C)CC[C@H](O)C(C)(C)[C@@H]5CC[C@@]4(C)[C@]3(C)CC[C@]23CO[C@]1(C)[C@@H](C(=O)/C=C\\c1cccnc1)C3", "Assigned Label": "inactive"}
{"Compound": "O=c1c2cc(F)ccc2sc2c(NCCCNCCO)nc3ccccc3c12", "Assigned Label": "active"}

Please turn your attention to the following entry.
Please let me know the test result on file for O=C(CSc1nc2ccccc2[nH]1)Nc1cccc(Cl)c1 .
inactive
